pIC50 overview
# TARGET SYSTEM: HLA-A*68:02
# ASSAY DETAILS: IEDB peptide-MHC binding, purified MHC/competitive/radioactivity; bounds were set here for any values at or beyond the usual limits of such assays
# EXPERIMENTAL PARAMETERS: source organism: SARS-CoV1
pIC50: −log10 of the molar value.
ASSAY METRIC: pIC50

[
  {
    "SEQ TEXT": "QLMCQPILLL",
    "REPORTED MEASUREMENT": 5.64
  },
  {
    "SEQ TEXT": "KLMGHFSWWT",
    "REPORTED MEASUREMENT": 5.68
  },
  {
    "SEQ TEXT": "FLIVAALVFL",
    "REPORTED MEASUREMENT": 5.96
  },
  {
    "SEQ TEXT": "FLLPSLATV",
    "REPORTED MEASUREMENT": 7.80
  },
  {
    "SEQ TEXT": "QMLSVVGFLV",
    "REPORTED MEASUREMENT": 6.69
  },
  {
    "SEQ TEXT": "LLFLVLIML",
    "REPORTED MEASUREMENT": 5.90
  },
  {
    "SEQ TEXT": "KIILFLTLI",
    "REPORTED MEASUREMENT": 6.42
  },
  {
    "SEQ TEXT": "TLGVYDYLV",
    "REPORTED MEASUREMENT": 6.80
  },
  {
    "SEQ TEXT": "FLAFLLFLV",
    "REPORTED MEASUREMENT": 7.18
  },
  {
    "SEQ TEXT": "YVVVHGYFT",
    "REPORTED MEASUREMENT": 6.67
  },
  {
    "SEQ TEXT": "CLDAGINYV",
    "REPORTED MEASUREMENT": 7.10
  },
  {
    "SEQ TEXT": "IVNSVLLFL",
    "REPORTED MEASUREMENT": 5.68
  },
  {
    "SEQ TEXT": "FLAHLQWFA",
    "REPORTED MEASUREMENT": 7.77
  }
]

###

pIC50 overview
# TARGET SYSTEM: HLA-A*68:02
# ASSAY DETAILS: IEDB peptide-MHC binding, purified MHC/competitive/radioactivity; bounds were set here for any values at or beyond the usual limits of such assays
# EXPERIMENTAL PARAMETERS: source organism: Vaccinia virus WR
pIC50: −log10 of the molar value.
ASSAY METRIC: pIC50

[
  {
    "SEQ TEXT": "NISFKSINKV",
    "ASSAY METRIC": "pIC50",
    "REPORTED MEASUREMENT": 5.69
  },
  {
    "SEQ TEXT": "LVFNSISARA",
    "ASSAY METRIC": "pIC50",
    "REPORTED MEASUREMENT": 6.77
  },
  {
    "SEQ TEXT": "NAVTTNNLL",
    "ASSAY METRIC": "pIC50",
    "REPORTED MEASUREMENT": 5.40
  },
  {
    "SEQ TEXT": "SLVITYCLV",
    "ASSAY METRIC": "pIC50",
    "REPORTED MEASUREMENT": 5.86
  },
  {
    "SEQ TEXT": "TAIRAGYSI",
    "ASSAY METRIC": "pIC50",
    "REPORTED MEASUREMENT": 6.90
  },
  {
    "SEQ TEXT": "ATCALVSDCA",
    "ASSAY METRIC": "pIC50",
    "REPORTED MEASUREMENT": 7.74
  },
  {
    "SEQ TEXT": "KTPDYPLIDI",
    "ASSAY METRIC": "pIC50",
    "REPORTED MEASUREMENT": 5.90
  },
  {
    "SEQ TEXT": "IMRVMANNV",
    "ASSAY METRIC": "pIC50",
    "REPORTED MEASUREMENT": 5.93
  },
  {
    "SEQ TEXT": "TLFYCDERDA",
    "ASSAY METRIC": "pIC50",
    "REPORTED MEASUREMENT": 5.31
  }
]

###

# TARGET SYSTEM: HLA-A*02:03
# ASSAY DETAILS: IEDB peptide-MHC binding, purified MHC/competitive/radioactivity; bounds were set here for any values at or beyond the usual limits of such assays
# EXPERIMENTAL PARAMETERS: source organism: SARS-CoV1
ASSAY METRIC: IC50 (µM)

[
  {
    "SEQ TEXT": "LAFVVFLLV",
    "ASSAY METRIC": "IC50",
    "REPORTED MEASUREMENT": 1.27
  },
  {
    "SEQ TEXT": "VMFNGVTFST",
    "ASSAY METRIC": "IC50",
    "REPORTED MEASUREMENT": 0.075
  },
  {
    "SEQ TEXT": "FLYIIKLVFL",
    "ASSAY METRIC": "IC50",
    "REPORTED MEASUREMENT": 0.022
  },
  {
    "SEQ TEXT": "IAMWLLLLSI",
    "ASSAY METRIC": "IC50",
    "REPORTED MEASUREMENT": 1.9
  },
  {
    "SEQ TEXT": "LVFLWLLWPV",
    "ASSAY METRIC": "IC50",
    "REPORTED MEASUREMENT": 0.0019
  },
  {
    "SEQ TEXT": "ALIARCWYL",
    "ASSAY METRIC": "IC50",
    "REPORTED MEASUREMENT": 0.017
  },
  {
    "SEQ TEXT": "LLFLVLIML",
    "ASSAY METRIC": "IC50",
    "REPORTED MEASUREMENT": 1.37
  },
  {
    "SEQ TEXT": "LLLSICLGSL",
    "ASSAY METRIC": "IC50",
    "REPORTED MEASUREMENT": 0.104
  },
  {
    "SEQ TEXT": "FLNRFTTTL",
    "ASSAY METRIC": "IC50",
    "REPORTED MEASUREMENT": 0.001
  },
  {
    "SEQ TEXT": "VLWAHGFEL",
    "ASSAY METRIC": "IC50",
    "REPORTED MEASUREMENT": 0.034
  },
  {
    "SEQ TEXT": "LIANIFTPLV",
    "ASSAY METRIC": "IC50",
    "REPORTED MEASUREMENT": 0.013
  }
]

###

pIC50 overview
# TARGET SYSTEM: HLA-A*02:01
# ASSAY DETAILS: IEDB peptide-MHC binding, purified MHC/competitive/radioactivity; bounds were set here for any values at or beyond the usual limits of such assays
# EXPERIMENTAL PARAMETERS: source organism: SARS-CoV1
pIC50: −log10 of the molar value.
ASSAY METRIC: pIC50

[
  {
    "SEQ TEXT": "KLFTIAMWLL",
    "TARGET SYSTEM": "HLA-A*02:01",
    "ASSAY METRIC": "pIC50",
    "REPORTED MEASUREMENT": 7.52
  },
  {
    "SEQ TEXT": "GLIAIVMVTI",
    "TARGET SYSTEM": "HLA-A*02:01",
    "ASSAY METRIC": "pIC50",
    "REPORTED MEASUREMENT": 7.21
  },
  {
    "SEQ TEXT": "LMANLAPHLL",
    "TARGET SYSTEM": "HLA-A*02:01",
    "ASSAY METRIC": "pIC50",
    "REPORTED MEASUREMENT": 7.52
  },
  {
    "SEQ TEXT": "VVHGYFTEV",
    "TARGET SYSTEM": "HLA-A*02:01",
    "ASSAY METRIC": "pIC50",
    "REPORTED MEASUREMENT": 7.82
  },
  {
    "SEQ TEXT": "FLFLAWIMLL",
    "TARGET SYSTEM": "HLA-A*02:01",
    "ASSAY METRIC": "pIC50",
    "REPORTED MEASUREMENT": 7.10
  },
  {
    "SEQ TEXT": "TLIDFYLCFL",
    "TARGET SYSTEM": "HLA-A*02:01",
    "ASSAY METRIC": "pIC50",
    "REPORTED MEASUREMENT": 8.66
  },
  {
    "SEQ TEXT": "FQFICNLLLL",
    "TARGET SYSTEM": "HLA-A*02:01",
    "ASSAY METRIC": "pIC50",
    "REPORTED MEASUREMENT": 8.28
  },
  {
    "SEQ TEXT": "IMLIIFWFSL",
    "TARGET SYSTEM": "HLA-A*02:01",
    "ASSAY METRIC": "pIC50",
    "REPORTED MEASUREMENT": 5.42
  }
]
